# Target of assay: T1, recombinant human heat shock cognate 71 kDa protein (Hsc70) (human, UniProt P11142 1-646, limits assumed)
# T1 construct: also called rhHsc70; human Hsc70
# T1 sequence (P11142 whole entry): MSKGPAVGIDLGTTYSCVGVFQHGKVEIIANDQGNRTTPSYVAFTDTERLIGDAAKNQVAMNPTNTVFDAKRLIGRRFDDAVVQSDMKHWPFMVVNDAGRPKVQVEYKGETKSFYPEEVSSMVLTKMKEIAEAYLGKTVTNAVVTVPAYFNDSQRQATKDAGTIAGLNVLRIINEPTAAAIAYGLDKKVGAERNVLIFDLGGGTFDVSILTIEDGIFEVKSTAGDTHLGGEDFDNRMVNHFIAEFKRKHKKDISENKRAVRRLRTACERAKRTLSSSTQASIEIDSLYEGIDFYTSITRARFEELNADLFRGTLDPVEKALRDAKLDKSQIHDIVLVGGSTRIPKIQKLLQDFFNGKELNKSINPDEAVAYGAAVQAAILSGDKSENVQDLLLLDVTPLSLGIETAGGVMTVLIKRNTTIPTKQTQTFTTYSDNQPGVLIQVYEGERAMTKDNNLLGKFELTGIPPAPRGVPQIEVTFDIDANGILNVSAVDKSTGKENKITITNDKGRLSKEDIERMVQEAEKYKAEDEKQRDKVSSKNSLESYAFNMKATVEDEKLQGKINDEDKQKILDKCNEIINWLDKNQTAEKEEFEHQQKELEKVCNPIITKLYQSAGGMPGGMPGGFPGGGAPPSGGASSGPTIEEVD
# Run description: SEC of peptide-Hsc70 mixture; peptide:Hsc70 molar ratio 4:1
Listing of entries alongside the reported Percent complexation with Hsc70.
Use % as the unit, but write only the number.

These solved cases illustrate the format of a correct answer.
FFRKNWLLLTW (Synthetic peptide) [PEP003]
87.6
FFRKNWLRLLW (Synthetic peptide) [PEP009]
89

In: Return reported Percent complexation with Hsc70; argument: FFRKNRLWLTG (Synthetic peptide) [PEP005]
Out: 77.6

In: Item FFRKNWLKLKW (Synthetic peptide) [PEP055] has what recorded Percent complexation with Hsc70?
Out: 86.3

In: # input binder: FFRKNWLKLTW (Synthetic peptide) [PEP012] ; wanted: its Percent complexation with Hsc70
Out: 89.5

In: Which Percent complexation with Hsc70 value is on record for FFRKQWLRLTW (Synthetic peptide) [PEP014] ?
Out: 90.3

In: Reported Percent complexation with Hsc70, binder FFRKNLLRLTW (Synthetic peptide) [PEP155] : ____
Out: 86.6

In: Consider the binder shown here: FFRKFWLRLTW (Synthetic peptide) [PEP008] What is its recorded Percent complexation with Hsc70?
Out: 81.6

Data origin, for the record: patent US20220008527A1
